Data credit: patent US8158792B2

# tested system: human lung tryptase
# assay method text: β-Tryptase In-Vitro Enzyme Assay
# condition notes: human lung tryptase 1 nM, substrate H-D-HHT-Ala-Arg-pNa 500 μM, pH 7.4, room temperature
pIC50: −log10 of the molar value.
Label rule, in plain words: pIC50 of 7 and up is Criterion met, under 7 is Criterion not met.

[
  {
    "compound": "NCc1ccc2c(c1)C1(CC2)CCN(C(=O)c2ccc(C#Cc3ccccc3)o2)CC1",
    "category": "Criterion met"
  },
  {
    "compound": "Cc1nc(-c2ccc(C(F)(F)F)cc2)sc1C(=O)N1CCC2(CC1)COc1ccc(CN)cc12",
    "category": "Criterion not met"
  },
  {
    "compound": "NCc1ccc2c(c1)C1(CCN(C(=O)C#Cc3ccccc3)CC1)CO2 [Cpd 108]",
    "category": "Criterion not met"
  },
  {
    "compound": "COc1ccc(CC(=O)N2CCC3(CC2)COc2ccc(CN)cc23)cc1C",
    "category": "Criterion not met"
  },
  {
    "compound": "C/C(=C/c1ccccc1)C(=O)N1CCC2(CC1)COc1ccc(CN)cc12",
    "category": "Criterion not met"
  },
  {
    "compound": "NCc1ccc2c(c1)C1(CCN(C(=O)c3sc(Cl)c(Cl)c3Cl)CC1)CO2",
    "category": "Criterion met"
  }
]

Textbook exercise: given the entry Cc1nc(-c2ccccc2)sc1C(=O)N1CCC2(CC1)COc1ccc(CN)cc12 , state whether its pIC50 is greater than or equal to 7.
Criterion not met

Textbook exercise: given the entry Cc1c(C(=O)N2CCC3(CC2)COc2ccc(CN)cc23)oc2c1C(=O)CC(c1ccccc1)C2 (stereo not shown) , state whether its pIC50 is greater than or equal to 7.
Criterion not met

Textbook exercise: given the entry NCc1cc2c(cc1F)OCC21CCN(C(=O)c2ccc(C#Cc3ccccc3)o2)CC1 , state whether its pIC50 is greater than or equal to 7.
Criterion met

Textbook exercise: given the entry NCc1ccc2c(c1)C1(CCN(C(=O)c3cc4ccccc4oc3=O)CC1)CO2 , state whether its pIC50 is greater than or equal to 7.
Criterion not met

Textbook exercise: given the entry NCc1ccc2c(c1)C1(CCN(C(=O)c3csc(-c4cccnc4)n3)CC1)CO2 , state whether its pIC50 is greater than or equal to 7.
Criterion not met

Textbook exercise: given the entry CCCCSc1sc(C(=O)N2CCC3(CC2)COc2ccc(CN)cc23)c2c1C(=O)CCC2 , state whether its pIC50 is greater than or equal to 7.
Criterion met

---

# tested system: human lung tryptase
# assay method text: β-Tryptase In-Vitro Enzyme Assay
# condition notes: human lung tryptase 1 nM, substrate H-D-HHT-Ala-Arg-pNa 500 μM, pH 7.4, room temperature
# Method: The β-tryptase assay was conducted with human lung tryptase (Cortex Biochem #CP3033) in an aqueous buffer (10 mM Tris, 10 mM Hepes, 150 mM NaCl, 0.1% PEG 8000, pH 7.4) using the chromogenic substrate H-D-HHT-Ala-Arg-pNa. […] Percent inhibition was calculated by comparing the initial reaction velocity of samples without inhibitor to those with inhibitor. The initial reaction velocities were analyzed using Microsoft Excel.
measured attribute: IC50 (µM)
One number for each entry, in µM.

[
  {
    "compound string": "CN(C)c1ccc(C(=O)N2CCC3(CC2)COc2ccc(CN)cc23)cc1",
    "IC50 / µM": 1
  },
  {
    "compound string": "NCc1ccc2c(c1)C1(CCN(C(=O)c3ccc(Oc4cc(Cl)cc(Cl)c4)o3)CC1)CO2",
    "IC50 / µM": 0.11
  },
  {
    "compound string": "CCc1ccc2c(Cl)c(C(=O)N3CCC4(CC3)COc3ccc(CN)cc34)sc2c1",
    "IC50 / µM": 2.8
  },
  {
    "compound string": "NCc1ccc2c(c1)C1(CCN(C(=O)CC3c4ccccc4-c4ccccc43)CC1)CO2",
    "IC50 / µM": 0.29
  }
]

Now let's try a different one.
Would you mind telling me what IC50 value was observed for NCc1ccc2c(c1)C1(CCN(C(=O)c3ccc(CCl)cc3)CC1)CO2 ?
1.6

---

# tested system: human lung tryptase
# assay method text: β-Tryptase In-Vitro Enzyme Assay
# condition notes: human lung tryptase 1 nM, substrate H-D-HHT-Ala-Arg-pNa 500 μM, pH 7.4, room temperature
measured attribute: pIC50
Answers are plain numbers, as −log10 of the molar value.

Example cases with answers are listed next.
[
  {
    "molecule": "NCc1ccc2c(c1)C1(CCN(C(=O)/C=C/c3ccccn3)CC1)CO2",
    "tested system": "human lung tryptase",
    "pIC50": 5.80
  },
  {
    "molecule": "NCc1ccc2c(c1)C1(CCN(C(=O)c3ccc(COc4ccc(F)cc4)o3)CC1)CO2",
    "tested system": "human lung tryptase",
    "pIC50": 6.59
  },
  {
    "molecule": "CCCOc1sc(C(=O)N2CCC3(CC2)CN(S(=O)(=O)O)c2ccc(CN)cc23)c(C)c1Br",
    "tested system": "human lung tryptase",
    "pIC50": 7.40
  }
]

I have 4 molecules here; please give me pIC50 for each one.
1. NCc1ccc2c(c1)C1(CCN(C(=O)c3ccc(C#Cc4ccccc4)o3)CC1)CN2C(=O)CS(=O)(=O)O
2. CCOC(=O)CC(NNC)C(=O)N1CC2(CCN(C(=O)c3ccc(C#Cc4ccccc4)o3)CC2)c2cc(CN)ccc21 (stereo not shown)
3. NCc1ccc2c(c1)C1(CCN(C(=O)Cc3cccc(C(F)(F)F)c3)CC1)CO2
4. NCc1ccc2c(c1)C1(CCN(C(=O)c3ccc(C#Cc4ccccc4)o3)CC1)CN2S(=O)(=O)c1ccccc1

7.70
7.55
5.57
8.24

---

# tested system: human lung tryptase
# assay method text: β-Tryptase In-Vitro Enzyme Assay
# Assay type: biochemical
# condition notes: human lung tryptase 1 nM, substrate H-D-HHT-Ala-Arg-pNa 500 μM, pH 7.4, room temperature
The label is satisfied for IC50 below 100 nM and not satisfied for IC50 equal to or exceeding 100 nM.

Could you please tell me whether IC50 recorded for NCc1ccc2c(c1)C1(CCN(C(=O)c3ccc(Sc4ccccc4)o3)CC1)CO2 [Cpd 23] is less than 100 nM?
satisfied

Could you please tell me whether IC50 recorded for NCc1ccc2c(c1)C1(CCN(C(=O)c3cc4ccccc4o3)CC1)CO2 [Cpd 160] is less than 100 nM?
not satisfied

Could you please tell me whether IC50 recorded for NCc1ccc2c(c1)C1(CCN(C(=O)c3ccc(-c4cc(Cl)ccc4Cl)o3)CC1)CO2 [Cpd 137] is less than 100 nM?
satisfied

---

For each of the compounds below, state its IC50.
# tested system: human lung tryptase
# assay method text: β-Tryptase In-Vitro Enzyme Assay
# condition notes: human lung tryptase 1 nM, substrate H-D-HHT-Ala-Arg-pNa 500 μM, pH 7.4, room temperature
Give bare numbers, in nM.

Example cases with answers are listed next.
[
  {
    "compound string": "NCc1ccc2c(c1)C1(CCN(C(=O)CCc3ccc4c(c3)OCO4)CC1)CO2",
    "IC50 / nM": 4500
  },
  {
    "compound string": "NCc1ccc2c(c1)C1(CCN(C(=O)c3cccc4c3Cc3ccccc3-4)CC1)CO2",
    "IC50 / nM": 1000
  },
  {
    "compound string": "NCc1ccc2c(c1)C1(CCN(C(=O)/C=C/c3cccc(OCCc4ccccc4)c3)CC1)CO2",
    "IC50 / nM": 97
  },
  {
    "compound string": "CC(=O)c1ccc(C(=O)N2CCC3(CC2)COc2ccc(CN)cc23)cc1",
    "IC50 / nM": 4800
  },
  {
    "compound string": "COc1ccccc1C#Cc1ccc(C(=O)N2CCC3(CC2)COc2ccc(CN)cc23)o1",
    "IC50 / nM": 13
  }
]

I have 4 compounds here; please give me IC50 for each one.
1. CNNC(=O)CS(=O)(=O)N1CC2(CCN(C(=O)c3ccc(C#Cc4ccccc4)o3)CC2)c2cc(CN)ccc21
2. CC1=C(C(=O)N2CCC3(CC2)COc2ccc(CN)cc23)Cc2ccccc21
3. NCc1ccc2c(c1)C1(CCN(C(=O)/C=C/c3ccccc3O)CC1)CO2
4. NCc1ccc2c(c1)C1(CCN(C(=O)c3ccc(C=O)s3)CC1)CO2

[16, 150, 190, 510]

I have 4 compounds here; please give me IC50 for each one.
1. NCc1ccc2c(c1)C1(CCN(C(=O)c3cccc(NC(N)=S)c3)CC1)CO2
2. COc1ccc(C(=O)N2CCC3(CC2)COc2ccc(CN)cc23)cc1Br
3. Cc1ccccc1/C=C/C(=O)N1CCC2(CC1)COc1ccc(CN)cc12
4. NCc1ccc2c(c1)C1(CCN(C(=O)C=C3OC(=O)c4ccccc43)CC1)CO2

1: 450; 2: 41; 3: 250; 4: 760
